Measured Kd values are reported for all entries that follow.
# targetOrTestSystem: full-length human sclerostin (FL hSOST) (human, UniProt Q9BQB4 25-213)
# Sequence (Q9BQB4 25-213): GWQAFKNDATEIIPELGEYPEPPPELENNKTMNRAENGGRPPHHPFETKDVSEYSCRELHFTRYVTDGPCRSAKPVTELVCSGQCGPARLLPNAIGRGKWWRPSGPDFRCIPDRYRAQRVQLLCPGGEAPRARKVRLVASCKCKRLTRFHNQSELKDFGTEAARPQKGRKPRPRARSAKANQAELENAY
# methodNotes: ELONA; ELONA: 160 ng protein coated in PBS; biotinylated aptamer 45 min at RT; wash in PBS pH 7.4, 1 mM MgCl2, 5 mM imidazole, 0.05% Tween 20; streptavidin-HRP/TMB, hyperbolic fit
# experimentalSetup: protein: recombinant; tags: His6; label: biotin
readoutType: Kd (nM)

>>> recordedmeasurement("CGGGGTGTGGGTTCGTCGTTAGCTTGATTTGGCAGCTGCC (ssDNA) [aptscl56]")
43.1
>>> recordedmeasurement("TGGAAGGGTGGGGGCGGGGGGTCCTCGCCTCGAACGTACG (ssDNA) [aptamer candidate 6]")
4.2
>>> recordedmeasurement("GAGGGGGCCAACTATGCTTAGTGGGGGGGTTGACCGTATC (ssDNA) [aptamer candidate 15]")
4
>>> recordedmeasurement("TGGGGGTAGGGGGTCCTTGGCTACGGTGATTCGGATGTGA (ssDNA) [aptamer candidate 51]")
62.2
>>> recordedmeasurement("TGGGGGTAGGGGGACCCTGGCTAGTTAGTCACCGTTTCGA (ssDNA) [aptamer candidate 9]")
3.4
>>> recordedmeasurement("CCCAGACGAGACACCTCATGCTTTTCCCCGGGGGAGGGGTAT (ssDNA) [aptamer candidate 132]")
42.2
>>> recordedmeasurement("GGGTGGATTAAGGGGGCCCCGTCTGTAGGCGATTGGCGAA (ssDNA) [aptamer candidate 46]")
45.6

Origin of measurements: paper PMC9307627
